Source listed as patent US20260078103A1.

# System: SKBR3 cells express WT PI3Ka
# Test Summary: In vitro cell proliferation, SKBR3 cells (CellTiter-Glo)
# Format: cell-based
# Run Parameters: Homo sapiens, SK-BR-3, 72 h, inhibition of proliferation
pEC50: −log10 of the molar value.
Measured Metric: pEC50

Query Smiles | Measured Metric | Result
Cc1cnc(N2CCN(c3cc4c([C@@H](C)Nc5ccccc5C(=O)O)cc(F)cc4c(=O)n3C)CC2)c(C)n1 | pEC50 | 4.82 to 5.70
C[C@@H](Nc1cccc(F)c1C(=O)O)c1cc(F)cc2c(=O)n(C)c(N3CC[C@H](C(F)(F)F)C3)cc12 | pEC50 | < 4.82
Cc1cc([C@@H](C)Nc2ccccc2C(=O)O)c2cc(N3CCN(OC(C)C)CC3)n(C)c(=O)c2c1 | pEC50 | < 4.82

Next:
Provide only the value of recorded pEC50 for Cc1cc([C@@H](C)Nc2ccccc2C(=O)O)c2cc(N3CCn4nc(C)cc4C3)n(C)c(=O)c2c1
< 4.82
